The measurements presented in this section are drawn from patent US4537614A.

Entries and their % Inhibition Wisconsin Soil
# System: urease
# assay.name: Urease Inhibiting Efficacy Test in Wisconsin soil (Plano silt loam, pH 5.4)
# Type: biochemical
# cond: 200 micrograms test compound (footnote *) + 42.8 mg urea per 20 g air dry soil, 25° C., 3 days, remaining urea
Dear colleague, please return just the value in %, with no unit written.

// known answers, use as guide
{"compound": "CC(C)CSP(N)(N)=O [Experiment 4, S-(iso-Butyl) Diamidophosphorothiolate]", "assay.result": 83}
{"compound": "CCC(C)SP(N)(N)=O (stereo not drawn) [Experiment 3, S-(2-Butyl) Diamidophosphorothiolate]", "assay.result": 84}

Query: Checklist item: % Inhibition Wisconsin Soil tested on urease, entry CCCCSP(N)(N)=O [Experiment 2, S-(n-Butyl) Diamidophosphorothiolate] , value?
Response: 82

Query: Checklist item: % Inhibition Wisconsin Soil tested on urease, entry NP(N)(=O)SC1CCCCC1 [Experiment 6, S-(Cyclohexyl) Diamidophosphorothiolate] , value?
Response: 58

Query: Checklist item: % Inhibition Wisconsin Soil tested on urease, entry CCCCCCSP(N)(N)=O [Experiment 5, S-(n-Hexyl) Diamidophosphorothiolate] , value?
Response: 66

---

# Test system: urease
# assay.name: Urease Inhibiting Efficacy Test in New York soil (Cazenovia silt loam, pH 7.2)
# Type: biochemical
# cond: 200 micrograms test compound (footnote *) + 42.8 mg urea per 20 g air dry soil, 25° C., 3 days, remaining urea
property.measured: % Inhibition Cazenovia Soil (%)
Dear colleague, please return just the value in %, with no unit written.

// known answers, use as guide
{"compound": "NP(N)(=O)SC1CCCCC1 [Experiment 6, S-(Cyclohexyl) Diamidophosphorothiolate]", "result.units": "%", "% Inhibition Cazenovia Soil": 66}
{"compound": "CC(C)CSP(N)(N)=O [Experiment 4, S-(iso-Butyl) Diamidophosphorothiolate]", "result.units": "%", "% Inhibition Cazenovia Soil": 80}
{"compound": "CCC(C)SP(N)(N)=O (stereo not drawn) [Experiment 3, S-(2-Butyl) Diamidophosphorothiolate]", "result.units": "%", "% Inhibition Cazenovia Soil": 74}
{"compound": "CCCCSP(N)(N)=O [Experiment 2, S-(n-Butyl) Diamidophosphorothiolate]", "result.units": "%", "% Inhibition Cazenovia Soil": 74}

Would you kindly look at the next entry?
Query: Looking for the measured % Inhibition Cazenovia Soil of CCCCCCSP(N)(N)=O [Experiment 5, S-(n-Hexyl) Diamidophosphorothiolate] , can you help?
Response: 52
